- Tested on: mouse/rat in vivo micronucleus assay, summary call
- Method notes: In vivo micronucleus assay summary data
Results filed as inconclusive are left out. Calls of active or inactive are those of the source. The rule behind the calls is not given here.
Classes used: active, inactive

{"columns": ["Molecule", "Assigned class"],
 "data": [
  ["C=C(C)C#N", "inactive"],
  ["C=CCOCC1CO1 (stereo not given)", "active"],
  ["CC(=O)C1(C)CC2=C(CCCC2(C)C)CC1C (stereo not given)", "active"],
  ["CCCC[N+]1(C)CCCC1", "active"],
  ["O=C(O)C=Cc1ccc(O)c(O)c1", "active"],
  ["C=COC(C)=O", "active"],
  ["CN(C)C(=O)Nc1ccc(Cl)cc1", "active"],
  ["CCOS(C)(=O)=O", "active"],
  ["Cc1cn([C@H]2C=C[C@@H](CO)O2)c(=O)[nH]c1=O", "active"],
  ["ClCC(Cl)(Cl)Cl", "active"],
  ["CCCOC(=O)c1cc(O)c(O)c(O)c1", "active"],
  ["NC(=O)c1ncn([C@@H]2O[C@H](CO)[C@@H](O)[C@H]2O)n1", "active"],
  ["Nc1ccccc1Cl", "active"],
  ["O=C(O)CCCc1ccc(N(CCCl)CCCl)cc1", "active"],
  ["Nc1nc(=S)c2[nH]cnc2[nH]1", "active"]
]}

* * *

- Tested on: mouse/rat in vivo micronucleus assay, summary call
- Method notes: In vivo micronucleus assay summary data
Inconclusive results are not listed. The source made the active and inactive calls. The rule behind the calls is not given here.
Assay readout: outcome

{"columns": ["Molecule", "Observed"],
 "data": [
  ["C[C@]12CC[C@@H]3c4ccc(O)cc4CC[C@H]3[C@@H]1CC[C@@H]2O", "inactive; negative"],
  ["Cc1cn([C@H]2C[C@H](N=[N+]=[N-])[C@@H](CO)O2)c(=O)[nH]c1=O", "active; positive"],
  ["[O-][Br+2]([O-])O", "active; positive"],
  ["Cc1c(N)cccc1N", "active; positive"],
  ["OCC1CO1 (centres undefined)", "active; positive"],
  ["CC(C)CON=O", "active; positive"],
  ["C=CC(=C)C", "active; positive"],
  ["C[C@H](Cn1cnc2c(N)ncnc21)OCP(=O)(O)O", "active; positive"],
  ["C=CC(N)=O", "active; positive"],
  ["Nc1nc(=O)n([C@@H]2CS[C@H](CO)O2)cc1F", "active; positive"],
  ["C=CCO", "inactive; negative"],
  ["Nc1ncnc2c1ncn2[C@H]1CC[C@@H](CO)O1", "active; positive"],
  ["Cc1c2ccccc2c(C)c2c1ccc1ccccc12", "active; positive"],
  ["CC[C@H](CC[C@@H](C)[C@H]1CC[C@H]2[C@@H]3CC=C4C[C@@H](O)CC[C@]4(C)[C@H]3CC[C@]12C)C(C)C", "inactive; negative"],
  ["O=S(=O)(c1ccc(Cl)cc1)c1ccc(Cl)cc1", "active; positive"],
  ["CC=Cc1ccc(O)c(OC)c1", "active; positive"],
  ["Nc1ccc(Oc2ccc(N)cc2)cc1", "active; positive"],
  ["Nc1ccccc1", "active; positive"],
  ["Nc1ccc(S(=O)(=O)Nc2ccccn2)cc1", "active; positive"],
  ["[O]=[Sb][O][Sb]=[O]", "active; positive"],
  ["C=C(C#N)C(=O)OCC", "inactive; negative"]
]}

* * *

- Tested on: mouse/rat in vivo micronucleus assay, summary call
- Method notes: In vivo micronucleus assay summary data
Inconclusive results are not listed. Active and inactive are the calls of the source. The rule behind the calls is not given here.
Labels: T for active, F for inactive

{"columns": ["Compound", "Assigned class"],
 "data": [
  ["Cc1ccccc1N", "T"],
  ["CC(C)(C)O", "F"],
  ["Oc1ccc(/C=C/c2cc(O)cc(O)c2)cc1", "F"],
  ["Nc1cc([N+](=O)[O-])ccc1O", "F"],
  ["O=C1O[C@H]([C@@H](O)CO)C(O)=C1O", "T"],
  ["O=S1(=O)CCCC1", "F"],
  ["O=NO", "F"],
  ["Nc1ccn([C@@H]2O[C@H](CO)[C@@H](O)[C@@H]2O)c(=O)n1", "T"],
  ["ClC(Cl)C(Cl)Cl", "T"],
  ["Nc1ccc(Cc2ccc(N)cc2)cc1", "T"],
  ["Cc1cccc([N+](=O)[O-])c1", "F"],
  ["O=C1OC(c2ccc(O)cc2)(c2ccc(O)cc2)c2ccccc21", "T"],
  ["BrCCBr", "T"],
  ["O=C(O)C(Br)Br", "T"],
  ["ClC(Cl)Cl", "T"],
  ["ClC=CCCl", "T"],
  ["C1CN1c1nc(N2CC2)nc(N2CC2)n1", "T"],
  ["CCCCn1cc[n+](C)c1", "F"],
  ["CC(=O)C(C)O (stereo unspecified)", "F"],
  ["CC(C)C=O", "F"],
  ["CC[C@]1(O)C[C@H]2CN(CCc3c([nH]c4ccccc34)[C@@](C(=O)OC)(c3cc4c(cc3OC)N(C=O)[C@H]3[C@@](O)(C(=O)OC)[C@H](OC(C)=O)[C@]5(CC)C=CCN6CC[C@]43[C@@H]65)C2)C1", "T"],
  ["O=C(O)C(F)(F)C(F)(F)C(F)(F)C(F)(F)C(F)(F)C(F)(F)C(F)(F)F", "T"],
  ["CC(=O)C(C)=O", "F"],
  ["Nc1cccc(Cl)c1", "F"],
  ["CC(C)N=C=NC(C)C", "T"],
  ["Oc1ccccc1", "T"],
  ["COc1ccc2nc(N)sc2c1", "T"],
  ["[O]=[Cr](=[O])([OH])[O][Cr](=[O])(=[O])[OH]", "T"],
  ["COC(=O)C(c1ccccc1)C1CCCCN1 (stereo unspecified)", "F"],
  ["c1ccccc1", "T"],
  ["Cc1ccc(S(N)(=O)=O)cc1", "F"]
]}

* * *

- Test system: mouse/rat in vivo micronucleus assay, summary call
- Method notes: In vivo micronucleus assay summary data
- Experimental: The erythrocyte micronucleus test examines the ability of substances to cause chromosome damage in developing red blood cells inside bone marrow. […] Animals are treated with a test substance once or daily over a period of time, and the frequency of micronucleated cells is determined 24-48 hours after the final treatment, depending on the source of the cells (bone marrow or blood) that are examined and the treatment regimen. […]
Records with an inconclusive call do not appear. The source made the active and inactive calls. How the calls were made is not given here.
Outcomes: active, inactive

{"columns": ["Compound", "Assigned class"],
 "data": [
  ["C=C(C)c1ccccc1", "active"],
  ["Nc1ccn([C@H]2CC[C@@H](CO)O2)c(=O)n1", "active"],
  ["C=CC(=O)NCNC(=O)C=C", "active"],
  ["CBr", "active"],
  ["Nc1ccc(Cl)cc1", "active"],
  ["C1CCC2CCCCC2C1 (centres undefined)", "active"],
  ["NC(=O)NO", "active"],
  ["OCc1c[nH]c2ccccc12", "inactive"],
  ["CC(=O)CC(C)=O", "active"]
]}

* * *

- Tested on: mouse/rat in vivo micronucleus assay, summary call
- Method notes: In vivo micronucleus assay summary data
Results filed as inconclusive are left out. Activity calls are given as the source filed them. How the calls were made is not given here.

{"columns": ["Compound", "outcome"],
 "data": [
  ["O=C(O)CS", "active; positive"],
  ["N[C@@H](Cc1ccc(N(CCCl)CCCl)cc1)C(=O)O", "active; positive"],
  ["CCCCCCc1ccc(O)cc1O", "active; positive"],
  ["Nc1ncn([C@@H]2O[C@H](CO)[C@@H](O)[C@H]2O)c(=O)n1", "active; positive"],
  ["CCCCC(CC)COC(=O)c1ccccc1C(=O)OCC(CC)CCCC (stereo not given)", "active; positive"],
  ["CCC(=O)C(C)=O", "inactive; negative"],
  ["CCn1cc[n+](C)c1", "inactive; negative"],
  ["CC1=CC(=O)NS(=O)(=O)O1", "active; positive"],
  ["Cc1ncc[nH]1", "active; positive"],
  ["O=[N+]([O-])C(Br)=Cc1ccccc1", "active; positive"],
  ["[O-][N+](=Nc1ccc(Cl)c(Cl)c1)c1ccc(Cl)c(Cl)c1", "active; positive"],
  ["FC(F)(F)c1ccc(Cl)cc1", "active; positive"],
  ["CN(N=O)C(N)=O", "active; positive"],
  ["CC(C)(C)c1ccc(O)c(O)c1", "inactive; negative"],
  ["O[C@@H]([C@H](O)[C@H](O)CBr)[C@H](O)CBr", "active; positive"]
]}

* * *

- System: mouse/rat in vivo micronucleus assay, summary call
- Method notes: In vivo micronucleus assay summary data
Records with an inconclusive call do not appear. Activity calls are given as the source filed them. How the calls were made is not given here. Where a SMILES comes first, the peptide text is derived from it.
Classes used: t for active, f for inactive

{"columns": ["Compound", "Assayed target", "Assigned class"],
 "data": [
  ["CCOC(N)=O", "mouse/rat in vivo micronucleus assay, summary call", "t"],
  ["CC(C)c1ccccc1", "mouse/rat in vivo micronucleus assay, summary call", "t"],
  ["C=CC(=O)OCC(CO)(COC(=O)C=C)COC(=O)C=C", "mouse/rat in vivo micronucleus assay, summary call", "t"],
  ["CC1C(=O)C[C@]2(C(C)C)C[C@H]12 (stereo partly drawn)", "mouse/rat in vivo micronucleus assay, summary call", "t"],
  ["O=P1(N(CCCl)CCCl)NCCCO1 (stereo not drawn)", "mouse/rat in vivo micronucleus assay, summary call", "t"],
  ["O=S(=O)([O-])[O-].[O]=[V+2]", "mouse/rat in vivo micronucleus assay, summary call", "f"],
  ["CN(C)c1ccc(C(=C2C=CC(=[N+](C)C)C=C2)c2ccccc2)cc1", "mouse/rat in vivo micronucleus assay, summary call", "f"],
  ["ClCCOCOCCCl", "mouse/rat in vivo micronucleus assay, summary call", "f"],
  ["CN(C)c1ccc(C(c2ccccc2)c2ccc(N(C)C)cc2)cc1", "mouse/rat in vivo micronucleus assay, summary call", "t"],
  ["CCCCCC=CC=CC=O", "mouse/rat in vivo micronucleus assay, summary call", "t"],
  ["Brc1c(Br)c(Br)c(Oc2c(Br)c(Br)c(Br)c(Br)c2Br)c(Br)c1Br", "mouse/rat in vivo micronucleus assay, summary call", "t"],
  ["COC(=O)[C@H](Cc1ccccc1)NC(=O)[C@@H](N)CC(=O)O (H-Asp-Phe-OMe)", "mouse/rat in vivo micronucleus assay, summary call", "t"],
  ["CC/C(=C(/CC)c1ccc(O)cc1)c1ccc(O)cc1", "mouse/rat in vivo micronucleus assay, summary call", "t"],
  ["Cn1c(=O)c2[nH]cnc2n(C)c1=O", "mouse/rat in vivo micronucleus assay, summary call", "t"],
  ["O=C1c2cccc(O)c2C(=O)c2c(O)cccc21", "mouse/rat in vivo micronucleus assay, summary call", "f"],
  ["O=C(O)c1cc(N=Nc2ccc(S(=O)(=O)Nc3ccccn3)cc2)ccc1O", "mouse/rat in vivo micronucleus assay, summary call", "t"],
  ["Oc1ccc(O)cc1", "mouse/rat in vivo micronucleus assay, summary call", "t"],
  ["Cc1cccc(Nc2cc(Cl)nc(SCC(=O)O)n2)c1C", "mouse/rat in vivo micronucleus assay, summary call", "f"],
  ["COC(=O)c1ccccc1C(=O)OC", "mouse/rat in vivo micronucleus assay, summary call", "f"],
  ["CCN(N=O)C(N)=O", "mouse/rat in vivo micronucleus assay, summary call", "t"],
  ["O=CC=CC=Cc1ccc([N+](=O)[O-])cc1", "mouse/rat in vivo micronucleus assay, summary call", "t"],
  ["O=C1C=CCCC1", "mouse/rat in vivo micronucleus assay, summary call", "f"],
  ["Cc1ccc([N+](=O)[O-])cc1", "mouse/rat in vivo micronucleus assay, summary call", "f"],
  ["Nc1ccc(Cl)cc1N", "mouse/rat in vivo micronucleus assay, summary call", "t"],
  ["COc1cc(Cc2cnc(N)nc2N)cc(OC)c1OC (tested in a mixture with another compound)", "mouse/rat in vivo micronucleus assay, summary call", "t"],
  ["OC(O)C(Cl)(Cl)Cl", "mouse/rat in vivo micronucleus assay, summary call", "t"],
  ["Clc1ccc(N=Nc2ccc(Cl)c(Cl)c2)cc1Cl", "mouse/rat in vivo micronucleus assay, summary call", "t"],
  ["CC(CCl)OP(=O)(OC(C)CCl)OC(C)CCl (stereo not drawn)", "mouse/rat in vivo micronucleus assay, summary call", "t"]
]}
